Parameter Φn (absolute fluorescence quantum yield measured using integrating spheres): see the listing below.
# assay.method.text: Optical characteristics of dyes in phosphate buffered saline of pH 7.4
# Format: physicochemical
Provide a numeric answer; units are not to be included.

Recorded Φn (absolute fluorescence quantum yield measured using integrating spheres), per entry:
Cc1cccc(C)c1C1=c2cc3c(cc2[Si](C)(C)c2cc(/N=N/c4ccc(N(C)C)cc4)ccc21)=[N+](C)CC3 [Compound 14, diMeazoSiR650]; 0.002
Cc1ccccc1C1=c2cc3c(cc2[Si](C)(C)c2cc(N)ccc21)=[N+](C)CC3 [Compound 5, 2MeIndoSiR]; 0.14

Pending compound:
// sample Cc1cccc(C)c1C1=c2cc3c(cc2[Si](C)(C)c2cc(N)ccc21)=[N+](C)CC3 [Compound 13, diMeSiR650] , its Φn (absolute fluorescence quantum yield measured using integrating spheres) was 0.15
